Target: T1, biotinylated ADDLs (bADDLs), oligomers prepared from N-terminal biotinylated amyloid β1-42 (N-terminal biotin)
T1 construct: also called high molecular weight 10% bADDL
Experiment: titration ELISA on streptavidin-captured 10% biotinylated ADDL
assayEndpoint: binding result

Worked cases, answers included:
humanized 2H4, CDR grafted, IgG1/kappa (antibody, V domains shown, also called 2H4 (humanized)) VH: EVQLVESGGGLVQPGGSLRLSCAASGFTFSSFGMHWVRQAPGKGLEWVAYIRSGSSTIYYADTVKGRFTISRDNSKNTLYLQMNSLRAEDTAVYYCARGGNYYGSSRFAYWGQGTLVTVSS VL: DIQMTQSPSSLSASVGDRVTITCKASQDINSYLSWFQQKPGKAPKTLIYRANRFVDGVPSRFSGSGSGTDYTLTISSLQPEDFATYFCLQYDEFPLTFGGGTKVEIKR :: binds
humanized 20C2, veneered, HCVR VenA IgG1 with veneered 20C2 LCVR Kappa (antibody, V domains shown, also called 20C2 VenA) VH: QVTLKESGPGILKPSQTLSLTCTFSGFSLSTSGMGVGWFRQPPGKGLEWLAHIWWDDDKSYNPSLKSRLTISKDTSKNQVFLTITNMDPVDTATYYCARRQLGLRSIDAMDYWGQGTTVTVSS VL: DVVMTQSPLSLPVSLGDPASISCRSSQSILHSNGNTYLEWYLQKPGQSPQLLIYKVSNRFSGVPDRFSGSGSGTDFTLKISRVEAEDLGVYYCFQGSLVPLTFGAGTKLELKR :: binds
humanized 3B3, CDR grafted, IgG1/kappa (antibody, V domains shown, also called 3B3 (humanized)) VH: EVQLVESGGGLVQPGGSLRLSCAASGFTFSSFGMHWVRQAPGKGLEWVAYISRGSSTIYYADTVKGRFTISRDNAKNSLYLQMNSLRAEDTAVYYCARGITTALDYWGQGTLVTVSS VL: DVVMTQSPLSLPVTPGEPASISCRSSQSIVHSNGNTYLEWYLQKPGQSPQLLIYKASNRFSGVPDRFSGSGSGTDFTLKISRVEAEDVGVYYCFQGSHVPPTFGQGTKLEIKR :: binds
humanized 1F6, CDR grafted, IgG1/kappa (antibody, V domains shown, also called 1F6 (humanized)) VH: EVQLVESGGGLVQPGGSLRLSCAASGFTFSSFGMHWVRQAPGKGLEWVAYISSVSSTIYYADTVKGRFTISRDNSKNTLYLQMNSLRAEDTAVYYCARSGYGSSYGYGMDYWGQGTLVTVSS VL: DVVMTQSPLSLPVTPGEPASISCRSSQSIVHSNGNTYLEWYLQKPGQSPQLLIYKVSNRFSGVPDRFSGSGSGTDFTLKISRVEAEDVGVYYCFQGSHVPLTFGQGTKLEIKR :: binds

Switching to the query record.
binding result reported for this binder humanized 4E2, CDR grafted, IgG1/kappa (antibody, V domains shown, also called 4E2 (humanized)) VH: QVTLKESGPALVKPTQTLTLTCTFSGFSLSTSGMGVGWIRQPPGKALEWLAHIWWDDDKYYNPSLKSQLTISKDTSKNQVVLTMTNMDPVDTATYYCARRSINSVVPEDYFDYWGQGTTVTVSS VL: DVVMTQSPLSLPVTPGEPASISCRSSQSIVHSNGNTYLEWYLQKPGQSPQLLIYKVSNRFSGVPDRFSGSGSGTDFTLKISRVEAEDVGVYYCFQGSHVPLTFGQGTKLEIKR : binds
